Reference source for all entries: ChEMBL document CHEMBL1137427

- experiment description: Tmax in portal vein catheter of Sprague-Dawley rat at 10 mg/kg, po
- Assay type: ADME, organism-based
- Design: dose 10 mg/kg, route oral
- setup conditions: in vivo
assay metric: Tmax (min)
// note: answer is a bare numeric in min

CCCCCC(=O)NCc1ccc(O)c(-c2cccc(-c3cc4cc(C(=N)N)ccc4[nH]3)c2O)c1 40

With those in mind, consider the next compound.
Q) State, in one line, measured Tmax of CCCCCC(=O)NCc1ccc(O)c(-c2cccc(-c3cc4cc(C(=N)NO)ccc4[nH]3)c2O)c1
A) 31

---

List of pKi values.
- subject of test: Coagulation factor VII (Homo sapiens)
- Sequence (P08709 whole entry): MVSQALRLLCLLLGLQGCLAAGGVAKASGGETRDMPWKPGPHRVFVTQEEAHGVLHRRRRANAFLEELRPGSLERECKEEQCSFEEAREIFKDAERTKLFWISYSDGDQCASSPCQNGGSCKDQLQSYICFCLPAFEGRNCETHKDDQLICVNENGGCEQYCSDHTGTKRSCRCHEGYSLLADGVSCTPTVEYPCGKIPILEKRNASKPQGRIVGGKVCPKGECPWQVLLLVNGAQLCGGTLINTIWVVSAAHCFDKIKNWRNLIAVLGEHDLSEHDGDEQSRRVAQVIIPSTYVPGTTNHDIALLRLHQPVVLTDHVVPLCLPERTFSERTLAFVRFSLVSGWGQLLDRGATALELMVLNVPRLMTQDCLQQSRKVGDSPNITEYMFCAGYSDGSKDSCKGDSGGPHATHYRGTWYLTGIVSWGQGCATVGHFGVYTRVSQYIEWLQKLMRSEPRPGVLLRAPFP
Just so you know, pKi here is -log10 of the concentration in molar units; reply with that number alone.

molecule	subject of test	observed measurement
N=C(N)c1ccc2[nH]c(-c3cccc(-c4cc(CNC(=O)CO)ccc4O)c3O)cc2c1	Coagulation factor VII (Homo sapiens)	8.52
N=C(N)c1ccc2[nH]c(-c3cccc(-c4cc(CNC(N)=O)ccc4O)c3O)nc2c1	Coagulation factor VII (Homo sapiens)	7.85
CN(C)CCCC(=O)NCc1ccc(O)c(-c2cccc(-c3cc4cc(C(=N)N)ccc4[nH]3)c2O)c1	Coagulation factor VII (Homo sapiens)	7.80

Q) Item N=C(N)c1ccc2[nH]c(-c3cc(F)cc(-c4cc(CNC(N)=O)ccc4O)c3O)nc2c1 : provide pKi
A) 8.30

Q) Given Cc1cc(-c2nc3cc(C(=N)N)ccc3[nH]2)c(O)c(-c2cc(CNC(N)=O)ccc2O)c1 , respond with its pKi.
A) 8.40

Q) Entry N=C(N)c1ccc2[nH]c(-c3cc(C(CC(=O)O)C(=O)O)cc(-c4cc(CNC(N)=O)ccc4O)c3O)nc2c1 (stereo unspecified) needs its pKi filled in; supply it.
A) 9.00
